Data credit: the supplement of paper PMC11061612

test system: AGS (Gastric Carcinoma); assay: combination Emax (second highest fraction inhibited in the dose matrix, 72 h); higher = more inhibition; extreme values may be limits of the assay
Recorded endpoint: combination Emax
No unit in the answer, please; the number alone is enough.

// below: answered molecules
1) CC1(C)CCC(CN2CCN(c3ccc(C(=O)NS(=O)(=O)c4ccc(NCC5CCOCC5)c([N+](=O)[O-])c4)c(Oc4cnc5[nH]ccc5c4)c3)CC2)=C(c2ccc(Cl)cc2)C1 [Venetoclax] + C=CCn1c(=O)c2cnc(Nc3ccc(N4CCN(C)CC4)cc3)nc2n1-c1cccc(C(C)(C)O)n1 [AZD1775] (first compound max 1 µM, partner max 1 µM)    0.595
2) Cn1cnc2c(F)c(Nc3ccc(Br)cc3Cl)c(C(=O)NOCCO)cc21 [Selumetinib] + CC(C)n1c(=O)n(C)c2cnc3cc(F)c(-c4ccc(OCCCN5CCCCC5)nc4)cc3c21 [AZD1390] (first compound max 10 µM, 7x7, partner max 0.3 µM)    0.842

Next molecule, please.
**Query** Reported combination Emax, molecule CN(CCO)CC[C@H](CSc1ccccc1)Nc1ccc(S(=O)(=O)NC(=O)c2ccc(N3CCC([C@@H](O)c4ccccc4-c4ccc(Cl)cc4)CC3)cc2)cc1S(=O)(=O)C(F)(F)F [AZD4320] + CCN(CCO)CCCOc1ccc2c(Nc3cc(CC(=O)Nc4cccc(F)c4)[nH]n3)ncnc2c1 [AZD2811] (first compound max 1 µM, 7x7, partner max 1 µM) : ____
**Result** 0.979

###

test system: LS-180 (Colorectal Carcinoma); assay: Bliss excess, mean over the matrix (fraction); higher = more synergy;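 note: after 72 h of two-drug dosing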
Answer FALSE if Bliss excess is under -0.02, and TRUE if it is -0.02 or more.

1) CN(CCO)CC[C@H](CSc1ccccc1)Nc1ccc(S(=O)(=O)NC(=O)c2ccc(N3CCC([C@@H](O)c4ccccc4-c4ccc(Cl)cc4)CC3)cc2)cc1S(=O)(=O)C(F)(F)F [AZD4320] + Cn1cnc2c(F)c(Nc3ccc(Br)cc3Cl)c(C(=O)NOCCO)cc21 [Selumetinib] (first compound max 1 µM, 7x7, partner max 3 µM)    TRUE
2) Cc1cc2ncnn2cc1Nc1ncc2c(n1)n(C1CCOCC1)c(=O)n2C [AZD7648] + COc1cc([C@@H]2c3cc4c(cc3[C@@H](O[C@@H]3O[C@@H]5CO[C@@H](C)O[C@H]5[C@H](O)[C@H]3O)[C@H]3COC(=O)[C@H]23)OCO4)cc(OC)c1O [Etoposide] (first compound max 10 µM, 7x7, partner max 10 µM)    TRUE
3) COc1nnc2ccc(N3CCC(c4ccc(OCCN5CCN(C)C(=O)[C@H]5C)cc4)CC3)nn12 [AZD5153] + Cc1c2c(nn1C)CSCc1cc(n(C)n1)CSc1cc(c3ccccc3c1)OCCCc1c(C(=O)O)n(C)c3c-2c(Cl)ccc13 [AZD5991] (first compound max 1 µM, 7x7, partner max 1 µM)    FALSE
4) CC(=O)c1c(C)c2cnc(Nc3ccc(N4CCNCC4)cn3)nc2n(C2CCCC2)c1=O [Palbociclib] + Cn1cnc2c(F)c(Nc3ccc(Br)cc3Cl)c(C(=O)NOCCO)cc21 [Selumetinib] (first compound max 10 µM, 7x7, partner max 10 µM)    TRUE
5) COc1cccc(OCCCN)c1-c1cc(Nc2cnc(C#N)cn2)n[nH]1 [Prexasertib] + CN(C)CCCOc1ccc(-c2ccc3ncc4c(c3c2)n(C2CCOCC2)c(=O)n4C)cn1 [AZD0156] (first compound max 1 µM, 7x7, partner max 1 µM)    FALSE
6) COc1cccc(OCCCN)c1-c1cc(Nc2cnc(C#N)cn2)n[nH]1 [Prexasertib] + Cc1cc2ncnn2cc1Nc1ncc2c(n1)n(C1CCOCC1)c(=O)n2C [AZD7648] (first compound max 1 µM, 7x7, partner max 10 µM)    FALSE
7) CCN(CCO)CCCOc1ccc2c(Nc3cc(CC(=O)Nc4cccc(F)c4)[nH]n3)ncnc2c1 [AZD2811] + C[C@@H]1COCCN1C2=NC(=NC(=C2)C3(CC3)[S@](=N)(=O)C)C4=C5C=CNC5=NC=C4 [AZD6738] (first compound max 1 µM, 7x7, partner max 10 µM)    FALSE

**Query** Evaluate NC1(C(=O)N[C@@H](CCO)c2ccc(Cl)cc2)CCN(c2ncnc3[nH]ccc23)CC1 [Capivasertib] + Cn1cnc2c(F)c(Nc3ccc(Br)cc3Cl)c(C(=O)NOCCO)cc21 [Selumetinib] (first compound max 10 µM, 7x7, partner max 10 µM) : Bliss excess at minimum -0.02?
**Result** FALSE
